Test: MRT (0 to t) in CD-1 mouse at 10 mg/kg,ip measured upto 24 hrs by HPLC-MS/MS analysis
Assay type: ADME, organism-based
Conditions: in vivo

structure: COc1cc(-c2nccc3nc(Nc4cccc5[nH]ccc45)nn23)cc(OC)c1OC
MRT last at 24 h / h: 4.6

* * *

Biological target: Tyrosine-protein kinase JAK3 (Homo sapiens)
Sequence (P52333 whole entry): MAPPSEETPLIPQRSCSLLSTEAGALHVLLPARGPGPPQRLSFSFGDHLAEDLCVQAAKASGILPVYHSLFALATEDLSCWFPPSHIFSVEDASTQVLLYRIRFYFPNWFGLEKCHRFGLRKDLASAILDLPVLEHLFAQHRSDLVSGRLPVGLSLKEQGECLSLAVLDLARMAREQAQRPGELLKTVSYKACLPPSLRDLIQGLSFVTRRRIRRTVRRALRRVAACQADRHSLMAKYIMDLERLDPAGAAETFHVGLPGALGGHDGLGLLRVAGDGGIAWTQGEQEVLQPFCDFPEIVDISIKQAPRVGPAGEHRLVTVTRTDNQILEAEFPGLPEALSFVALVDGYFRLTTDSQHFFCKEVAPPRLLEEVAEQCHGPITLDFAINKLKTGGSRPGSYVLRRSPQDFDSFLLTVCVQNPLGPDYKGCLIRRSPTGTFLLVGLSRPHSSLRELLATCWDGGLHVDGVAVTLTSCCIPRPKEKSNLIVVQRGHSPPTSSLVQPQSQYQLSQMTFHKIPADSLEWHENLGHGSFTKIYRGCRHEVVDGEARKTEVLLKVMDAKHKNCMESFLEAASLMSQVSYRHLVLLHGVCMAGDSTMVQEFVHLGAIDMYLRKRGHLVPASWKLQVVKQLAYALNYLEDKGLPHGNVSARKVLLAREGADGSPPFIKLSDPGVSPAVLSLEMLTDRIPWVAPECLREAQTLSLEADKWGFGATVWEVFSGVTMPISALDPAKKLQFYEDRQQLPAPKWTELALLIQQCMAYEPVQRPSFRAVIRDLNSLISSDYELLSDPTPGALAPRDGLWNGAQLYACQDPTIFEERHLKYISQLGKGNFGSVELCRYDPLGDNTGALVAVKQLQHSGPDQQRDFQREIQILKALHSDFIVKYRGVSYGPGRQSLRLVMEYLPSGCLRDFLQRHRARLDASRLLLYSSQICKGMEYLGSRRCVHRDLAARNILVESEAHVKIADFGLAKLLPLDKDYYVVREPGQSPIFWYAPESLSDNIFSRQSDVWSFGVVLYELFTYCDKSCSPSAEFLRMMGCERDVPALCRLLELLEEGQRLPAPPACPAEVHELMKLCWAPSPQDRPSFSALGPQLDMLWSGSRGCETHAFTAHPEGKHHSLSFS
pIC50: −log10 of the molar value.

structure: COc1cc(-c2nccc3nc(Nc4cccc5[nH]ccc45)nn23)cc(OC)c1OC
target-or-system: Tyrosine-protein kinase JAK3 (Homo sapiens)
pIC50: 4.91

* * *

System: HeLa
Assay: Antiproliferative activity against human HeLa cells assessed as cell growth inhibition incubated for 48 hrs by MTT assay
Assay type: functional, cell-based

structure: COc1cc(-c2cncc3nc(Nc4cccc5c4ccn5C)nn23)cc(OC)c1OC
units-label: nM
operator: =
IC50: 59

structure: COCOc1cc(Nc2nc3ccnc(-c4cc(OC)c(OC)c(OC)c4)n3n2)ccc1C
units-label: nM
operator: >
IC50: 10000

structure: COc1cc(-c2ccnc3nc(Nc4cccc5c4ccn5C)nn23)cc(OC)c1OC
units-label: nM
operator: =
IC50: 80

structure: COc1cc(-c2nccc3nc(Nc4ccc(C)c(O)c4)nn23)cc(OC)c1OC
units-label: nM
operator: =
IC50: 312

structure: COCOc1cc(Nc2nc3ccnc(-c4cc(OC)c(OC)c(OC)c4)n3n2)ccc1OC
units-label: nM
operator: >
IC50: 10000

structure: COc1cc(-c2nccc3nc(Nc4cccc5cc[nH]c45)nn23)cc(OC)c1OC
units-label: nM
operator: =
IC50: 2580

structure: COc1cc(-c2cccc3nc(Nc4cccc5[nH]ccc45)nn23)cc(OC)c1OC
units-label: nM
operator: =
IC50: 247

structure: COc1cc(-c2nccc3nc(Nc4ccc5[nH]ccc5c4)nn23)cc(OC)c1OC
units-label: nM
operator: =
IC50: 131

structure: COc1ccc(Nc2nc3ccnc(-c4cc(OC)c(OC)c(OC)c4)n3n2)cc1O
units-label: nM
operator: =
IC50: 1060

structure: COc1cc(Nc2nc3ccnc(-c4cccc5[nH]ccc45)n3n2)cc(OC)c1OC
units-label: nM
operator: =
IC50: 982

structure: COc1cc(-c2nccc3nc(Nc4cccc5[nH]c6ccccc6c45)nn23)cc(OC)c1OC
units-label: nM
operator: >
IC50: 10000

structure: COc1cc(-c2nccc3nc(Nc4cccc5ccn(C)c45)nn23)cc(OC)c1OC
units-label: nM
operator: >
IC50: 10000

structure: COc1cc(-c2cncc3nc(Nc4cccc5[nH]ccc45)nn23)cc(OC)c1OC
units-label: nM
operator: =
IC50: 41

structure: COc1ccc(Nc2nc3ccnc(-c4cc(OC)c(OC)c(OC)c4)n3n2)cc1N
units-label: nM
operator: =
IC50: 117

structure: COc1cc(-c2nccc3nc(Nc4ccc5c(c4)c4ccccc4n5C)nn23)cc(OC)c1OC
units-label: nM
operator: >
IC50: 10000

structure: COc1cc(-c2nccc3nc(Nc4ccc5c(c4)[nH]c4ccccc45)nn23)cc(OC)c1OC
units-label: nM
operator: >
IC50: 10000

structure: CN1CCN(c2cccc(Nc3nc4c(-c5ccc(S(C)(=O)=O)cc5)cccn4n3)c2)CC1
units-label: nM
operator: =
IC50: 1260

structure: COc1cc(-c2nccc3nc(Nc4cccc5c4ccn5P(=O)([O-])[O-])nn23)cc(OC)c1OC.[Na+].[Na+]
units-label: nM
operator: =
IC50: 11

structure: COc1ccc(Nc2nc3ccnc(-c4cc(OC)c(OC)c(OC)c4)n3n2)cc1[N+](=O)[O-]
units-label: nM
operator: =
IC50: 593

structure: COc1ccc(-c2ccc3nnc(Nc4cc(OC)c(OC)c(OC)c4)n3c2)cc1O
units-label: nM
operator: =
IC50: 11300

structure: COc1cc(-c2ccnc3nc(Nc4cccc5[nH]ccc45)nn23)cc(OC)c1OC
units-label: nM
operator: =
IC50: 166

structure: COc1cc(-c2nccc3nc(Nc4cccc5c4ccn5C)nn23)cc(OC)c1OC
units-label: nM
operator: =
IC50: 29

structure: COc1cc(-c2nccc3nc(Nc4cccc5[nH]ccc45)nn23)cc(OC)c1OC
units-label: nM
operator: =
IC50: 15

structure: CC(=O)O[C@H]1C(=O)[C@@]2(C)[C@H]([C@H](OC(=O)c3ccccc3)[C@]3(O)C[C@H](OC(=O)[C@H](O)[C@@H](NC(=O)c4ccccc4)c4ccccc4)C(C)=C1C3(C)C)[C@]1(OC(C)=O)CO[C@@H]1C[C@@H]2O
units-label: nM
operator: =
IC50: 7

structure: COc1cc(-c2nccc3nc(Nc4ccc5c(ccn5C)c4)nn23)cc(OC)c1OC
units-label: nM
operator: =
IC50: 202

structure: COc1cc(-c2nccc3nc(Nc4ccc5cc[nH]c5c4)nn23)cc(OC)c1OC
units-label: nM
operator: =
IC50: 209

structure: COc1cc(-c2nccc3nc(Nc4ccc5ccn(C)c5c4)nn23)cc(OC)c1OC
units-label: nM
operator: =
IC50: 2170

structure: COc1cc(-c2nccc3nc(Nc4ccc5c6ccccc6n(C)c5c4)nn23)cc(OC)c1OC
units-label: nM
operator: >
IC50: 10000
